Hi there, I'd appreciate the recorded EC50 for every entry that follows.
- Experimental Target: Caenorhabditis elegans slo-1a (Caenorhabditis elegans)
- Sequence (Q95V25 whole entry): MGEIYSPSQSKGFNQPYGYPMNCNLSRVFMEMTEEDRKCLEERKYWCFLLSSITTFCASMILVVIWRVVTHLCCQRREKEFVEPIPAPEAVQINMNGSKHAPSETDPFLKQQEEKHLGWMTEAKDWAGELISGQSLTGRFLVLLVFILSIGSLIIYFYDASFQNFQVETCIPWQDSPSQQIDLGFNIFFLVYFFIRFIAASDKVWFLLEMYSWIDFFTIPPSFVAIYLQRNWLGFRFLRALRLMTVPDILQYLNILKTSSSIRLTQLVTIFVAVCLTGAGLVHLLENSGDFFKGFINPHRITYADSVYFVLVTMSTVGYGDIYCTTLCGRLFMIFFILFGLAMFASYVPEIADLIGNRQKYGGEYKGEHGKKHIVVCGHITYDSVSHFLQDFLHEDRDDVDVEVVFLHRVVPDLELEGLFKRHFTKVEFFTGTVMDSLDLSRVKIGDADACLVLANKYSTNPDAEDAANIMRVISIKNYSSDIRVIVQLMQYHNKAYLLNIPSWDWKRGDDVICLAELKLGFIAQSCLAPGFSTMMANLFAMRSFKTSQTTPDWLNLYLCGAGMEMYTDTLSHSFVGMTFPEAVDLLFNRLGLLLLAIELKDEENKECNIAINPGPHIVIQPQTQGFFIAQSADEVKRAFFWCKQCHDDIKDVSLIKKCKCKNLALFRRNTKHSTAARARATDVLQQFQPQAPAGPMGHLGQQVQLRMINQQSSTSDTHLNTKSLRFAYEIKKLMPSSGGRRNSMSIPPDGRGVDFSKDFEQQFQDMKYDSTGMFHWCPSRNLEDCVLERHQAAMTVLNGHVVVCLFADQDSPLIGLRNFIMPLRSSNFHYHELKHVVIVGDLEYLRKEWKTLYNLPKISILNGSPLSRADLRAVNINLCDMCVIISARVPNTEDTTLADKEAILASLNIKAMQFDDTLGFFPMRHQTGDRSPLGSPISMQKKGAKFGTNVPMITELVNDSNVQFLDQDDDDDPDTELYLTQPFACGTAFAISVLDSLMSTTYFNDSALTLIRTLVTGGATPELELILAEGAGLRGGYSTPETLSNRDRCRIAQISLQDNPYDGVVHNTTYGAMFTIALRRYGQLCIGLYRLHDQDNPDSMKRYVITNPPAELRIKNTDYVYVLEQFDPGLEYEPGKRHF
- Assay Text: Agonistic activity at C. elegans Slo-1a, membrane potential (FLIPR) in transfected CHO K1 cells
- Assay Conditions: EC50 agonistic activity at C. elegans Slo-1a, membrane potential dye, 70 mM KCl

So, CN(C)c1c(NC(=O)c2cccc3ccccc23)cnc2c(-c3cccc(Cl)c3Cl)c(F)ccc12 ? Its EC50 was < 1 µM

For reference, reported EC50 for CN(C)c1c(NC(=O)C2CCOc3ccccc32)cnc2c(-c3cccc(Cl)c3Cl)cccc12 (stereo not shown) stands at < 1 µM

// sample CC(C(=O)Nc1cnc2c(-c3cccc(Cl)c3Cl)cccc2c1N1CCOCC1)c1ccccc1 (stereo not shown) , its EC50 was < 10 µM

# compound COc1c(NC(=O)C2CCOc3ccccc32)cnc2c(-c3cccc(Cl)c3Cl)c(C)ccc12 (stereo not shown) ; its EC50 = < 10 µM

GET /value?item= CN(C)c1c(NC(=O)C2CCOc3ccccc32)cnc2c(-c3cc(Cl)cc(Cl)c3)cccc12 (stereo not shown) &field=EC50 returns < 1 µM

Reported EC50 for COc1c(NC(=O)C2CCCc3ccccc32)cnc2c(-c3cccc(Cl)c3Cl)cccc12 (stereo not shown) was < 1 µM

Given item COc1c(NC(=O)c2cccc3ccccc23)cnc2c(-c3cccc(Cl)c3Cl)cccc12 , the value recorded as its EC50 is < 1 µM

Data point: CCOc1c(NC(=O)C2CCCc3ccccc32)cnc2c(-c3cc(Cl)cc(Cl)c3)cccc12 (stereo not shown) ; EC50 = < 1 µM

Per the record, O=C(Nc1cnc2c(-c3cc(Cl)cc(Cl)c3)cccc2c1N1CCOCC1)C1CCc2ccccc21 (stereo not shown) has EC50 of < 1 µM

// field: EC50; key: CN(C)c1c(NC(=O)c2cccc3ccccc23)cnc2c(-c3cc(Cl)cc(Cl)c3)c(F)ccc12 ; value = < 1 µM

Value of EC50 reported for the compound CN(C)c1c(NC(=O)C2CCOc3ccccc32)cnc2c(-c3cc(Cl)cc(Cl)c3)c(Cl)ccc12 (stereo not shown) is < 1 µM

response.value for CN(C)c1c(NC(=O)[C@H]2CCCc3ccccc32)cnc2c(-c3cc(Cl)cc(Cl)c3)cccc12 (field: EC50) = < 1 µM

Entry under test: CN(C)c1c(NC(=O)[C@H]2CCc3ccccc32)cnc2c(-c3cc(Cl)cc(Cl)c3)c(Cl)ccc12 . Its EC50 was < 1 µM

Reported EC50 for C=C(C)c1c(NC(=O)C2CCc3ccccc32)cnc2c(-c3cccc(Cl)c3Cl)cccc12 (stereo not shown) was < 1 µM

Record summary for O=C(Nc1cnc2c(-c3cc(Cl)cc(Cl)c3)c(F)ccc2c1N1CCOCC1)c1cccc2ccccc12 : reported EC50 = < 1 µM

Recorded result, O=C(Nc1cnc2c(-c3cc(Cl)cc(Cl)c3)c(Cl)ccc2c1N1CCOCC1)[C@H]1CCCc2ccccc21 , EC50: < 1 µM

Noted for CC(C)c1c(NC(=O)C2CCCc3ccccc32)cnc2c(-c3cccc(Cl)c3Cl)cccc12 (stereo not shown) : its EC50 reads < 1 µM

// sample CN(C)c1c(NC(=O)C2CCOc3ccccc32)cnc2c(-c3cc(F)cc(F)c3)cccc12 (stereo not shown) , its EC50 was < 10 µM

Please fill in: EC50 reported for CCc1c(NC(=O)C2CCCc3ccccc32)cnc2c(-c3cc(Cl)cc(Cl)c3)cccc12 (stereo not shown) = < 1 µM

Lookup result for O=C(Nc1cnc2c(-c3cc(Cl)cc(Cl)c3)c(Cl)ccc2c1N1CCOCC1)C1CCOc2ccccc21 (stereo not shown) ; measured EC50: < 1 µM

For reference, reported EC50 for O=C(Nc1cnc2c(-c3cccc(Cl)c3Cl)cccc2c1N1CCOCC1)C1CCCc2ccccc21 (stereo not shown) stands at < 1 µM

Field EC50 (entry CCOc1c(NC(=O)C2CCc3ccccc32)cnc2c(-c3cc(Cl)cc(Cl)c3)cccc12 (stereo not shown) ) reads < 10 µM

// EC50 value for CN(C)c1c(NC(=O)Cc2ccccc2)cnc2c(-c3cccc(Cl)c3Cl)cccc12 : < 10 µM

Field EC50 (entry CCOc1c(NC(=O)c2cccc3ccccc23)cnc2c(-c3cccc(Cl)c3Cl)c(F)ccc12 ) reads < 1 µM

The compound listed as O=C(Nc1cnc2c(-c3cc(Cl)cc(Cl)c3)c(F)ccc2c1N1CCOCC1)C1CCc2ccccc21 (stereo not shown) has a reported EC50 of < 10 µM

Just so you know, measured EC50 for Cc1c(NC(=O)C2CCOc3ccccc32)cnc2c(-c3cc(Cl)cc(Cl)c3)cccc12 (stereo not shown) came out at < 10 µM

response.value for O=C(Nc1cnc2c(-c3cc(Cl)cc(Cl)c3)cccc2c1O)C1CCc2ccccc21 (stereo not shown) (field: EC50) = < 10 µM

Measured EC50 of CCc1c(NC(=O)[C@H]2CCCc3ccccc32)cnc2c(-c3cccc(Cl)c3Cl)cccc12 : < 1 µM

# EC50 (compound: O=C(Nc1cnc2c(-c3cc(Cl)cc(Cl)c3)c(F)ccc2c1N1CCOCC1)C1CCCc2ccccc21 (stereo not shown) ) is < 1 µM

// sample O=C(Nc1cnc2c(-c3cccc(Cl)c3Cl)cccc2c1N1CCC(O)C1)C1CCOc2ccccc21 (stereo not shown) , its EC50 was < 1 µM

Memo: CCOc1c(NC(=O)c2cccc3ccccc23)cnc2c(-c3cc(Cl)cc(Cl)c3)c(F)ccc12 , reported EC50: < 10 µM
